- experimental.protocol: soluble on expression in E. coli; label from the status in PepcDB or PDB records

{"columns": ["record.sequence", "soluble on expression in E. coli"],
 "data": [
  ["MDHSLNSLNNFDFLARSFARMHAEGRPVDILAVTGNMDEEHRTWFCARYAWYCQQMMQARELELEH", "soluble"],
  ["MDYLNYEEIQSLKNSLLHNIKHTYISRYMILTALYTGMRPGEIAVLTWSDIDFKNQTININKSYNHDKGRVDNYDSSEIDKSTKNTNSVRIIKVDKKFLDILSQLKQNDHEKIFIGKDGTIPTSNAVNKVWRKQLEKLNIDKPSFHFHSVRHTHVALLPFKGVPLYAISKRLGHANMSTTAKKYAYMLDELKQQVRLEHHHHHH", "soluble"],
  ["MAHHHHHHMNKNYPGRITSAPLAQQARGLSLRPGAPASFLDRAQPGGAGTGIGAQQSHHNNNLPRAPRAKPPTQLQTPAPAPPLPKEEAEEERSGAAEVAPSEVSYPEDHIYDVEDFIKLRKCQAPVPSEVMEYARAMWKEMPENMDDMENNSLRDNLFREQNASTMSKVMTDRKINNEVLGILGKVTASNLEKMKKELTDLPIRQSTKEEIDEV", "soluble"]
]}
